- Test system: pathway directly downstream of cGAS in cGAMP-stimulated THP1-Dual cells
- assay: cGAMP stimulated counter cell assay (THP1(cGAMP) IC50): IFN induction in cGAMP-stimulated THP1-Dual cells
- Format: cell-based, human
- condition_set: Homo sapiens, THP1-Dual; Table 3; Compound No. 5 of WO 2022/174012; read-out: THP1(cGAMP) IC50
quantity_measured: IC50

Ask | Record request: IC50 value, item Cc1nc(N2C[C@@H](CC(=O)Nc3ccc(-c4ccccc4)cc3)C[C@H]2C(=O)O)c2oc3ccccc3c2n1 [Compound 5 (BBL0100455), reference compound]
Reply | > 10 µM

* * *

- assayed_target: Human cGAS enzyme (Homo sapiens (Human), UniProt Q8N884)
- Sequence (Q8N884 whole entry): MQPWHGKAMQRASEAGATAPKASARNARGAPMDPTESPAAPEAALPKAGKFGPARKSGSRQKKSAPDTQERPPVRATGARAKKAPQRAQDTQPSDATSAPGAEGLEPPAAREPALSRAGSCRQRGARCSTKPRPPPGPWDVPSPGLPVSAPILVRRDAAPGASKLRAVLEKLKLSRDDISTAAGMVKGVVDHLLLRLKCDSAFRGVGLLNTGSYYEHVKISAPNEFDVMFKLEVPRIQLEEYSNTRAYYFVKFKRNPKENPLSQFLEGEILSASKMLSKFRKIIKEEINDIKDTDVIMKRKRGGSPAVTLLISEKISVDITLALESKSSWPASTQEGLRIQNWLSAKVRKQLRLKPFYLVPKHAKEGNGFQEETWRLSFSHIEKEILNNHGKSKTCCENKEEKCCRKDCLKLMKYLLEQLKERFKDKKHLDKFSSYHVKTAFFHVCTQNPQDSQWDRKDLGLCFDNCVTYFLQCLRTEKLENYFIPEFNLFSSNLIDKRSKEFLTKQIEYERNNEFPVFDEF
- assay: Human cGAS enzyme assay (hcGAS IC50, in vitro), cGAMP formation by RapidFire MS;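 note: recombinant human cGAS activated by 45 bp dsDNA with 30 µM each ATP and GTP, 90 min, cGAMP vs cyclic-di-GMP standard by MS, 8-point titration from 10 µM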
- Format: biochemical
- condition_set: Table 2; compounds from WO 2020/142729 re-tested in the applicant's assay
Provide the reported IC50 of each item.

Ask | # query: IC50 | item Cc1nc(N2C[C@@H](Cc3nn[nH]n3)C[C@H]2C(=O)O)c2oc3ccccc3c2n1 [Example No. 25 of WO 2020/142729, reference compound] | system: Human cGAS enzyme (Homo sapiens (Human), UniProt Q8N884)
Reply | 55 nM

Ask | Any idea what IC50 came out for CC(C)(C(=O)N[C@H]1C[C@@H](C(=O)O)N(c2nc(C(F)(F)F)nc3c2oc2ccccc23)C1)c1cn[nH]c1 on Human cGAS enzyme (Homo sapiens (Human), UniProt Q8N884)?
Reply | 320 nM

Ask | Field: IC50 (Human cGAS enzyme (Homo sapiens (Human), UniProt Q8N884)). Entry: Cc1nc(N2C[C@@H](CC(=O)Nc3ccncc3)C[C@H]2C(=O)O)c2oc3ccccc3c2n1
Reply | 630 nM

* * *

- Tested on: pathway directly downstream of cGAS in cGAMP-stimulated THP1-Dual cells
- assay: cGAMP stimulated counter cell assay (THP1(cGAMP) IC50): IFN induction in cGAMP-stimulated THP1-Dual cells
- Type: cell-based, human
- condition_set: Homo sapiens, THP1-Dual; Table 1; cGAMP-stimulated THP1 cells; read-out: THP(cGAMP) IC50
So I've got a bunch of molecules here, and I need their pIC50 values.
# pIC50 is unitless: minus log10 of the molar concentration; print number only

Ask | Need pIC50, item C[C@H]1CN2CC[C@]1(F)c1cc(Cl)cnc1O[C@H]1C[C@@H](C(=O)O)N(C1)c1nc(nc3c1oc1ccccc13)COCCCCCC2=O [Example 12]
Reply | 5.00

Ask | Name the reported pIC50 value associated with the molecule C[C@H]1CN2CC[C@]1(F)c1cc(Cl)cnc1O[C@H]1C[C@@H](C(=O)O)N(C1)c1nc(nc3c1oc1ccccc13)CCCOCC2=O [Example 37]
Reply | 4.96

Ask | For C[C@H]1CN2CC[C@]1(F)c1cc(Cl)cnc1O[C@H]1C[C@@H](C(=O)O)N(C1)c1nc(nc3c1oc1ccccc13)C(F)(F)COCCCC2=O [Example 21] , what is its reported pIC50?
Reply | 5.00

* * *

- assayed_target: cellular cGAS activity in dsDNA-stimulated human whole blood (Homo sapiens (Human), UniProt Q8N884)
- Sequence (Q8N884 whole entry): as above
- assay: Human whole blood assay (hWB IC50): IFNα2a production after dsDNA transfection;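 note: IFNα-2a in plasma measured by MSD electrochemiluminescence immunoassay after 22 h at 37 °C, 8-point dilution series from 10 µM top concentration, DMSO wells as controls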
- Assay type: cell-based
- condition_set: Table 1; dsDNA-stimulated human whole blood
pIC50: −log10 of the molar value.
Label True when pIC50 is at or above 7; anything below gets False.

Ask | Determine whether this compound has pIC50 no lower than 7: C[C@H]1CN2CC[C@]1(F)c1cc(-c3cnn(C)c3)cnc1O[C@H]1C[C@@H](C(=O)O)N(C1)c1nc(nc3c1oc1ccccc13)CCOCCCC2=O [Example 20.02]
Reply | True

Ask | pIC50 >= 7 for C[C@H]1CN2CC[C@]1(F)c1cc(Cl)cnc1O[C@H]1C[C@@H](C(=O)O)N(C1)c1nc(nc3c1oc1ccccc13)CC(=O)NCCCC2=O [Example 01] ?
Reply | False

Ask | Please indicate if the recorded pIC50 for COc1cc(-c2cnc3c(c2)[C@@]2(F)CCN(C[C@@H]2C)C(=O)CCCOCCc2nc(c4oc5ccccc5c4n2)N2C[C@H](C[C@H]2C(=O)O)O3)c(F)cn1 [Example 20.03] meets or exceeds 7.
Reply | True

Ask | Decide: pIC50 of C[C@H]1CN2CC[C@]1(F)c1cc(Cl)cnc1O[C@H]1C[C@@H](C(=O)O)N(C1)c1nc(nc3c1oc1cc(Cl)ccc13)C(F)(F)CCCOCC2=O [Example 33] >= 7?
Reply | True

Ask | Check the entry C[C@H]1CN2CC[C@]1(F)c1cc(Cl)cnc1O[C@H]1C[C@@H](C(=O)O)N(C1)c1nc(nc3c1oc1ccccc13)CCCCOC2=O [Example 35] : does pIC50 equal or exceed 7?
Reply | False

Ask | Could you verify whether the entry C[C@H]1CN2CC[C@]1(F)c1cc(Cl)cnc1O[C@H]1C[C@@H](C(=O)O)N(C1)c1nc(nc3c1oc1ccccc13)C(F)(F)CCCCC(F)(F)C2=O [Example 06] shows pIC50 of no less than 7?
Reply | False

Ask | Item COc1ncccc1-c1cnc2c(c1)[C@@]1(F)CCN(C[C@@H]1C)C(=O)CCCOCCc1nc(c3oc4ccccc4c3n1)N1C[C@H](C[C@H]1C(=O)O)O2 [Example 20.01] with pIC50 of 7 or above?
Reply | True
